test system: A549 NSCLC; assay: NCI tumour cell line growth inhibition, 48 h
MEASURE: TGI

Here's what some known entries look like.
>>> result("CN1C/C(=C\\c2cccs2)C2=NN(c3ccccc3)C(c3cccs3)C2C1 (stereo not drawn)")
"> 100 µM"
>>> result("Cc1[nH]c(=O)nc(N/N=C/c2c3ccccc3c(Cl)c3ccccc23)c1C(=O)Nc1ccc(Cl)cc1")
"> 100 µM"

What measured TGI goes with CCOC(CBr)OC1C(=O)OCC1(C)C (stereo not drawn) ?
> 100 µM

* * *

Listing of entries alongside the reported TGI.
tested on: SR leukemia; assay: NCI tumour cell line growth inhibition, 48 h

Here's what some known entries look like.
>>> result("O=c1[nH]c2nc3ccccc3c(=O)n2nc1Cc1ccccc1")
"> 100 µM"
>>> result("CC1OC(NCCNCCNC2OC(C)C(O)C(O)C2O)C(O)C(O)C1O (centres undefined)")
"> 100 µM"
>>> result("O=C(CC(C(=O)c1ccsc1)c1cccs1)c1ccccc1 (centres undefined)")
"> 100 µM"
>>> result("CCC1c2[nH]c3ccccc3c2C[C@H]2C(=O)NC(C)C(=O)N12 (some centres undefined)")
"> 100 µM"
>>> result("COc1ccc(-n2nc(C)c3c(Nc4ccc(NC(=O)Nc5cccc(C(F)(F)F)c5)cc4)ncnc32)cc1")
"9.38 µM"

What measured TGI goes with O=C(CC1(O)C(=O)Nc2ccccc21)c1ccc(Cl)c(Cl)c1 (centres undefined) ?
> 100 µM

Subsequent entry: "Cc1nc2c(Cl)cc(Cl)cc2c2c1CCO2"
> 100 µM

Subsequent entry: "Cc1cc(NC(=O)NCCOc2ccc(N3C(N)=NC(N)=NC3(C)C)cc2Cl)ccc1S(=O)(=O)F"
40 µM

Subsequent entry: CCOC(CBr)OC1C(=O)OCC1(C)C (centres undefined)
> 100 µM

Subsequent entry: "COc1cc(/C=C/C(=O)CC(=O)/C=C/c2cc(C)c(O)c(OC)c2)cc(C)c1O"
> 100 µM

Subsequent entry: "CN(C)N1C(=O)C(=O)N(c2cccc3ccccc23)C1=O"
> 10 µM

* * *

Listing of entries alongside the reported TGI.
system: COLO 205 colon; test: NCI tumour cell line growth inhibition, 48 h

Here's what some known entries look like.
>>> result("C=CCCC(O)c1cc(C)c(O)c(C)c1 (stereo not given)")
"> 100 µM"
>>> result("O=C(NC(=S)Nc1ccc(Br)cc1)c1ccc2c(c1)Sc1ccccc1O2")
"> 100 µM"
>>> result("Cc1ccc(C(=O)Nc2ccc(S(=O)(=O)O)c3cc(S(=O)(=O)O)cc(S(=O)(=O)O)c23)cc1NC(=O)c1cccc(NC(=O)Nc2cccc(C(=O)Nc3cc(C(=O)Nc4ccc(S(=O)(=O)O)c5cc(S(=O)(=O)O)cc(S(=O)(=O)O)c45)ccc3C)c2)c1")
"> 100 µM"

What measured TGI goes with "Cc1c(C)c2cc3c(=O)c(CCl)coc3c(C)c2oc1=O" ?
> 100 µM

Subsequent entry: "COc1ccc(SCc2cc(OC)ccc2OC)cc1"
> 61 µM

Subsequent entry: CCC(C)C(Nc1c2ccccc2nc2c(C(=O)NCCN(C)C)cccc12)C(=O)O (stereo not given)
> 100 µM

Subsequent entry: Cc1cc(=O)[nH]c2cc(NC(=O)C(C)NC(=O)C(C)NC(=O)C(C)NC(=O)OC(C)(C)C)ccc12 (stereo not given)
> 15 µM

Subsequent entry: "CCN(CC)CCC(=O)/C=C/c1ccc(Cl)c(Cl)c1"
> 10 µM

Subsequent entry: "O=C(NCCCN1CCN(CCCNC(=O)c2cccc3ccccc23)CC1)c1cccc2ccccc12"
> 100 µM

Subsequent entry: CCCC(=O)OCC1OC(n2cc(F)c(=O)[nH]c2=O)CC1OC(=O)CCC (stereo not given)
> 10 µM
